FYI, the data here is from ChEMBL document CHEMBL1127170.

- assay_system: Polyunsaturated fatty acid 5-lipoxygenase (Rattus norvegicus)
- Sequence (P12527 whole entry): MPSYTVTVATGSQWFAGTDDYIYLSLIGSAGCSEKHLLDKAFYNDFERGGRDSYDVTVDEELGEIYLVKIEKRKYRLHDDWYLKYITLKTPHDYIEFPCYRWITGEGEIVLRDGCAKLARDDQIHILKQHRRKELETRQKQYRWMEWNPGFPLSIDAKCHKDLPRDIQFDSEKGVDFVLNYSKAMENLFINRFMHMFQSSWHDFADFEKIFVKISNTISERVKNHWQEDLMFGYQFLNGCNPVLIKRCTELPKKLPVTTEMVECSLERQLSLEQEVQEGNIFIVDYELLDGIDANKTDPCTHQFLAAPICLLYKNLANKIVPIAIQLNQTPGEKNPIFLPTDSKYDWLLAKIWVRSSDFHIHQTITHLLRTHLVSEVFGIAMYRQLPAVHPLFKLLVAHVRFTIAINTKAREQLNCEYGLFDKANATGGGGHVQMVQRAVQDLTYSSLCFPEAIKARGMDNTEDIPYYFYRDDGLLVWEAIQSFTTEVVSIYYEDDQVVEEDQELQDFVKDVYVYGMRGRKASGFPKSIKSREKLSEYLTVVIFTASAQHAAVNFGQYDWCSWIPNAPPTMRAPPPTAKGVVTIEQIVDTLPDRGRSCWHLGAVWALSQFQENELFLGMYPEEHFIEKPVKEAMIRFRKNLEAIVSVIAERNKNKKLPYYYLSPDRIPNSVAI
- protocol_details: The compound was tested for the inhibition of 5-lipoxygenase in intact basophilic rat leukemia cells
Entries annotated with measured IC50
Supply the numeric figure in nM, leaving out any unit text.

CC(C)(C)c1cc(Sc2nnc(NC#N)s2)cc(C(C)(C)C)c1O :: 3100

Proceeding to the next compound to report its IC50.
Lookup: Annotate the compound `CC(C)(C)c1cc(Sc2nnc(O)o2)cc(C(C)(C)C)c1O` with its measured IC50.
Found: 1100
